No end group written: not given here.
Readout Label: differential NaCl-induced change (20 vs 5 mM), average

Record WGRGRGRGWPGVGY [WGR-1] , field differential NaCl-induced change (20 vs 5 mM), average: 3.5 Hz

====

# Condition Info: solution NMR, Trp1-Hα and Trp1-Hβ shifts at pH 6.0, 7.0, 7.5, 8.0, 9.0, Henderson-Hasselbach fit; error by Monte Carlo
No end group written: not given here.
The entries below are paired with their reported pKa of the N-terminal amine group.
Would you mind answering with just the numeric figure?

Ordered Residues	pKa of the N-terminal amine group
WGRGRGRGWY [WGR-4]	7.37

Record WGRGRGRGWPGVGF [WGR-3] , field pKa of the N-terminal amine group: 7.49

Record WGRGRGWPGVGY [WGR-5] , field pKa of the N-terminal amine group: 7.51

Record WGRGRGRGWPGVGY [WGR-1] , field pKa of the N-terminal amine group: 7.50
